test: green autofluorescence of compounds with GSH beads – biophysical, 488/530 nm, flow cytometry, artefact control, profiling panel (AID 1776); conditions: compound fluorescence 488/530 nm, at 10 µM, stronger effect = higher value;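 further: glutathione beads carrying GST-tagged Bcl family fusion proteins plus one bare bead set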
In all, about 190,000 compounds went through this assay and about 490 (0.26%) were called active. This excerpt belongs to a sample that is enriched for actives.
Decide using fluorescence (KMESF): a value greater than or equal to 20 is Y, a smaller one is N.

// known answers, use as guide
[
  {
    "COMPOUND": "COc1ccc(C(=O)NNc2cc(C)nc(NNC(=O)c3ccc(OC)cc3)n2)cc1",
    "LABEL": "N"
  },
  {
    "COMPOUND": "CC1(c2ccccc2Cl)NC(=O)N(CC(=O)NC(=O)NCc2ccco2)C1=O (stereo unspecified)",
    "LABEL": "Y"
  },
  {
    "COMPOUND": "COC(=O)CC1=NN(c2nc(C)cc(C)n2)C(=O)C1",
    "LABEL": "N"
  },
  {
    "COMPOUND": "CCCCN(C)CCNC(=O)CSCc1ccc(C)cc1",
    "LABEL": "Y"
  },
  {
    "COMPOUND": "CC1CN(C(=O)CN2C(=O)NC(C)(c3ccccc3)C2=O)CC(C)O1 (stereo unspecified)",
    "LABEL": "Y"
  },
  {
    "COMPOUND": "CCc1ccc(CN2C(=O)c3ccccc3C2C(=O)NCC2CCCO2)cc1 (stereo unspecified)",
    "LABEL": "N"
  },
  {
    "COMPOUND": "COC(=O)Cc1c(O)ccn(Cc2cccc(C(F)(F)F)c2)c1=O",
    "LABEL": "N"
  },
  {
    "COMPOUND": "COC(=O)c1ccc(-c2noc(CN(Cc3ccccn3)CC3CCCO3)n2)cc1 (stereo unspecified)",
    "LABEL": "N"
  },
  {
    "COMPOUND": "CCCCN1C(=O)/C(=C(/C#N)C(N)=O)c2ccccc21",
    "LABEL": "N"
  },
  {
    "COMPOUND": "CC(Oc1ccccc1)C(=O)NN1Cc2ccccc2C1=N (stereo unspecified)",
    "LABEL": "N"
  }
]

Pending compound:
Lookup: Hi, just wondering whether Cc1cc(C)nc(NNC2=CC(=O)CC(C)(C)C2)n1 shows fluorescence (KMESF) of 20 or higher.
Found: N
